The entries below come with measured ΔTm values attached.
Target: Peregrin (Homo sapiens)
Sequence (whole entry): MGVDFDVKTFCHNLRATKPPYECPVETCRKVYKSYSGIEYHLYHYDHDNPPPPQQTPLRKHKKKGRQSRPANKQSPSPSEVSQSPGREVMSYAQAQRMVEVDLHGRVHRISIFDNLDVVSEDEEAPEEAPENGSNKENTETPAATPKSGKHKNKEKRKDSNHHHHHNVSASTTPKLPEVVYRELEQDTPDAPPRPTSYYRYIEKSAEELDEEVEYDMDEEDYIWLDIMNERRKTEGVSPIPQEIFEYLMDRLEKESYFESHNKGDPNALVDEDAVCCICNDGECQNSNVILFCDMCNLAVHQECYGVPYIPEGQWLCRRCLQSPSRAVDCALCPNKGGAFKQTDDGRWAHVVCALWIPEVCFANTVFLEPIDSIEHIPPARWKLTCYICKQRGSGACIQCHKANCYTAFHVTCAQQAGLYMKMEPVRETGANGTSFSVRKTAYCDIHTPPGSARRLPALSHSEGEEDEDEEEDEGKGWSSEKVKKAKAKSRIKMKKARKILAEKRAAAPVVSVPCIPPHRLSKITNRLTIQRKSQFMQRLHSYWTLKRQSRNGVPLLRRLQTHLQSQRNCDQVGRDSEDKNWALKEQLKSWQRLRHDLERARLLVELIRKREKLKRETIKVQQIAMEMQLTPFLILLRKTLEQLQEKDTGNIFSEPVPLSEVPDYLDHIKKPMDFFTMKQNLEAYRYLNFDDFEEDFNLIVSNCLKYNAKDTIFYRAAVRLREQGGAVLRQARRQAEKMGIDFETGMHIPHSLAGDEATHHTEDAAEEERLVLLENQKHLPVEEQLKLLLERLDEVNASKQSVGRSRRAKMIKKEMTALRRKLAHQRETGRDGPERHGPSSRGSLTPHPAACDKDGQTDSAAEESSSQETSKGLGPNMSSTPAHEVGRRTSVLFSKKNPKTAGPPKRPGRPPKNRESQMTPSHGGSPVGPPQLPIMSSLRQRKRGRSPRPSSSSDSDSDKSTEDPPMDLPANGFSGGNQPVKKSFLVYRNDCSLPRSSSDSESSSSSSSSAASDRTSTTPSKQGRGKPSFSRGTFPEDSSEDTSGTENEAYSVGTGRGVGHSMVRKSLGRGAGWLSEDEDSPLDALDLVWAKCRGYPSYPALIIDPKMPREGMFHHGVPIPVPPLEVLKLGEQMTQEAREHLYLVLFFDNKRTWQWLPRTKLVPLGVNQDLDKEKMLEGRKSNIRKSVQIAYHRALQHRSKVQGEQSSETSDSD
Conditions: Compound concentration 20.0 uM

Answered examples (10):
{"COMPOUND": "O=[N+]([O-])c1ccc(CSc2ncnc3c2ncn3[C@@H]2O[C@H](CO)[C@@H](O)[C@H]2O)cc1", "SYSTEM_UNDER_TEST": "Peregrin (Homo sapiens)", "ΔTm": "1.12 °C"}
{"COMPOUND": "COc1cccc(OC)c1S(=O)(=O)Nc1noc2cc(Cn3cccn3)cc(OC)c12", "SYSTEM_UNDER_TEST": "Peregrin (Homo sapiens)", "ΔTm": "-0.57 °C"}
{"COMPOUND": "C[C@@H](Nc1nc2c(cnn2C2CCCC2)c(=O)[nH]1)C(=O)N1CC[C@H](F)C1", "SYSTEM_UNDER_TEST": "Peregrin (Homo sapiens)", "ΔTm": "-0.37 °C"}
{"COMPOUND": "Cc1ccsc1C(=CCCN1CCC[C@@H](C(=O)O)C1)c1sccc1C", "SYSTEM_UNDER_TEST": "Peregrin (Homo sapiens)", "ΔTm": "0.44 °C"}
{"COMPOUND": "Cc1ccc2[nH]c(-n3nc(C)c(Cc4ccccc4)c3O)nc2c1", "SYSTEM_UNDER_TEST": "Peregrin (Homo sapiens)", "ΔTm": "0.31 °C"}
{"COMPOUND": "C[C@@H]1OC(=O)NN=C1c1ccc(-c2ccc(F)cc2)c(C(F)(F)F)c1", "SYSTEM_UNDER_TEST": "Peregrin (Homo sapiens)", "ΔTm": "0.4 °C"}
{"COMPOUND": "NS(=O)(=O)OC[C@H]1C[C@@H](Nc2ncncc2C(=O)c2ccn(Cc3cccc(Br)c3)n2)C[C@@H]1O", "SYSTEM_UNDER_TEST": "Peregrin (Homo sapiens)", "ΔTm": "1.11 °C"}
{"COMPOUND": "CC(=O)N1CCC(Nc2cc(C(=O)NC[C@H](O)CN3CCc4ccccc4C3)ncn2)CC1", "SYSTEM_UNDER_TEST": "Peregrin (Homo sapiens)", "ΔTm": "-1.13 °C"}
{"COMPOUND": "CCCSc1nc2c(c(=O)n1-c1ccccc1)SCC2", "SYSTEM_UNDER_TEST": "Peregrin (Homo sapiens)", "ΔTm": "0.27 °C"}
{"COMPOUND": "Cc1nc(N)c2nnn(C[C@H]3CN(Cc4nccs4)CCO3)c2n1", "SYSTEM_UNDER_TEST": "Peregrin (Homo sapiens)", "ΔTm": "0.82 °C"}

Lookup result for CC(=O)N[C@@H](CC(=O)O)C(=O)N[C@@H](CC(N)=O)C(=O)N[C@@H](CC(C)C)C(=O)N[C@H](C=O)CC(=O)O ; measured ΔTm: 1.79 °C

Lookup result for CCn1c(=O)c(C)cn(Cc2nnc(-c3ccc(F)c(OC)c3F)s2)c1=O ; measured ΔTm: -0.72 °C

====

The entries below come with measured ΔTm values attached.
Biological target: Peregrin (Homo sapiens) (UniProt P55201)
Details: Compound concentration 20.0 uM
Hi, when you answer, please include the unit after the number. Thanks!

Observed ΔTm on Peregrin (Homo sapiens) (UniProt P55201), entry Nc1ncnc2c1ncn2[C@@H]1O[C@H](C(=O)N2CCN(CC(=O)Nc3cccc4c3CNC4=O)CC2)[C@@H](O)[C@H]1O , equals -1.21 °C

Observed ΔTm on Peregrin (Homo sapiens) (UniProt P55201), entry CCCCOc1c(OC)cc(C(=O)NCC2(N(C)C)CCOCC2)cc1OC , equals -1.37 °C

Observed ΔTm on Peregrin (Homo sapiens) (UniProt P55201), entry CCCc1nc(C)c2c(=O)nc(-c3cc(S(=O)(=O)N4CCN(CC)CC4)ccc3OCC)[nH]n12 , equals 1.02 °C

Observed ΔTm on Peregrin (Homo sapiens) (UniProt P55201), entry COc1nc(N)nc(Nc2cc(S(N)(=O)=O)ccc2N[C@@H](c2cccc3c2OC(F)(F)O3)c2ncccc2Cl)n1 , equals -3.63 °C

Observed ΔTm on Peregrin (Homo sapiens) (UniProt P55201), entry O=c1[nH][nH]c(=O)c2cc(OCc3ccccc3F)ccc12 , equals 2.62 °C

====

Target: Peregrin (Homo sapiens) (UniProt P55201)
Sequence (whole entry): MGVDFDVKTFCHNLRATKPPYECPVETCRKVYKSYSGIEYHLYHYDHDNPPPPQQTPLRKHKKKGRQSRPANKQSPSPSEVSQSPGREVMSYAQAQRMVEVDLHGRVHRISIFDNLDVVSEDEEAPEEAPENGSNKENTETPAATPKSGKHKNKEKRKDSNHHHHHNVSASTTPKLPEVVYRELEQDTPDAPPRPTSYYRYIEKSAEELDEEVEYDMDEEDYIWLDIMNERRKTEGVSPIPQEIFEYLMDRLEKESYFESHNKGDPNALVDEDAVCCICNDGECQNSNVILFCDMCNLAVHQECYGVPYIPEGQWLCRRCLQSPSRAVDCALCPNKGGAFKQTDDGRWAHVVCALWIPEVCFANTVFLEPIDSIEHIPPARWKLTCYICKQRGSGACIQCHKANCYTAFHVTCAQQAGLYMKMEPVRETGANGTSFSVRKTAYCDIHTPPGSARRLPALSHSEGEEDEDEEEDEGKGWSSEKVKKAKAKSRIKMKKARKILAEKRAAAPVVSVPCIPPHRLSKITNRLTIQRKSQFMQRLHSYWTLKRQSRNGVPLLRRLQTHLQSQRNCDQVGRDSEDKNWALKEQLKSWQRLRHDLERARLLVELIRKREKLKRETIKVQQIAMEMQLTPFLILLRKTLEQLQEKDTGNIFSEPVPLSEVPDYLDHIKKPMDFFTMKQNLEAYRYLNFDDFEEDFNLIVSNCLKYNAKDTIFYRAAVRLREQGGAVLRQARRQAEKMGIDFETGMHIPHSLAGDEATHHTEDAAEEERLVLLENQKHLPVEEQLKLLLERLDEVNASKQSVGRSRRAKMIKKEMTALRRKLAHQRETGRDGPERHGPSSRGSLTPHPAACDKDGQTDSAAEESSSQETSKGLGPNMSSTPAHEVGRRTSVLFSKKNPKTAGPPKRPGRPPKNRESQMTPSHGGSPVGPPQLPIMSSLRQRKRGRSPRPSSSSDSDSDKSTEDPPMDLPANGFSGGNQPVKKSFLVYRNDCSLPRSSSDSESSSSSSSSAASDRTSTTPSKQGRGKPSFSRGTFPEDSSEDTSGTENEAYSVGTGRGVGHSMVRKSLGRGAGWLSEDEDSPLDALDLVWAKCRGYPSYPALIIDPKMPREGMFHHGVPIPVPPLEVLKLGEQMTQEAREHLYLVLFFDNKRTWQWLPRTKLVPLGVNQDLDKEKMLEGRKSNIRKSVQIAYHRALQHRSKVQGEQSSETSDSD
Conditions: Compound concentration 20.0 uM
OBSERVATION_TYPE: ΔTm (°C)
Report the value in °C with no unit label.

{"COMPOUND": "CCOC(=O)c1ccc(-c2ccc(OC(=O)N(C)Cc3cccc(-c4ccncc4)c3)cc2)cc1", "READING_UNIT": "°C", "ΔTm": 3.12}
{"COMPOUND": "CC(=O)Nc1ccc(C(=O)Nc2ccc(F)cc2N)cc1", "READING_UNIT": "°C", "ΔTm": 1.03}
{"COMPOUND": "C=CCc1cccc(CNc2nc3ccccc3n2CCC)c1O", "READING_UNIT": "°C", "ΔTm": 4.18}
{"COMPOUND": "CCc1c(C#N)c(S[C@@H](C(N)=O)c2ccccc2)nc(N(C)C)c1C#N", "READING_UNIT": "°C", "ΔTm": 2.36}

# ---- query compound ----
Lookup result for CCC[C@@H]1CNCc2c1[nH]c(=O)c(C#N)c2N1CCC2(CC1)CC2 ; measured ΔTm: -1.25
